Entries and their self-splicing fitness (ln) values follow.
Assay: self-splicing fitness, log relative to wild type (ln ratio); higher = more splicing; Tetrahymena group I intron in knt gene, E. coli kanamycin selection, DiMSum; sequences stand for … in CUCUCU…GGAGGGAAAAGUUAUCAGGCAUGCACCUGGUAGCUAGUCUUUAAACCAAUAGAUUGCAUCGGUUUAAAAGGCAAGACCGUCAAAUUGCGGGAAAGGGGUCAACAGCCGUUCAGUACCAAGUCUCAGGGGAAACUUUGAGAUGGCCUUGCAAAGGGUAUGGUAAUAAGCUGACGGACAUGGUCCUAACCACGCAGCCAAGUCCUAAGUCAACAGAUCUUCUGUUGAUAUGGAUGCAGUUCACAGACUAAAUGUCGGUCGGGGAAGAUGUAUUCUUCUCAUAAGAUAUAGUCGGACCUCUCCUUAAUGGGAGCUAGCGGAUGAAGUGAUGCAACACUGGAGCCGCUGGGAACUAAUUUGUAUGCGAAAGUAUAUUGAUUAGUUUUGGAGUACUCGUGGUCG;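 note: selection with 25 µg/mL kanamycin versus none on LB agar overnight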
Settings: 37 °C
Hey, just send me the number, nothing else.

Worked examples, 6 sequences total:
[[record]]
chainsequence = "AAAUAGCAAUAUUACGCUUU"
readoutkind = "self-splicing fitness (ln)"
valuemeasured = -1.09

[[record]]
chainsequence = "CUCUAGCAAUAUUACGUGGU"
readoutkind = "self-splicing fitness (ln)"
valuemeasured = -3.5

[[record]]
chainsequence = "CUACAGCAAUAUUACGCGGA"
readoutkind = "self-splicing fitness (ln)"
valuemeasured = -3

[[record]]
chainsequence = "UACGAGCAAUAUUACGUACC"
readoutkind = "self-splicing fitness (ln)"
valuemeasured = -1.17

[[record]]
chainsequence = "UUUAAGCAAUAUUACGUUGU"
readoutkind = "self-splicing fitness (ln)"
valuemeasured = -2.2

[[record]]
chainsequence = "UUCGAGCAAUAUUACGGUGA"
readoutkind = "self-splicing fitness (ln)"
valuemeasured = -0.708


Return reported self-splicing fitness (ln). Input sequence: "UGGAAGCAAUAUUACGGGUC"
-3.04

Return reported self-splicing fitness (ln). Input sequence: "CACCAGCAAUAUUACGCAGC"
-1.77

Return reported self-splicing fitness (ln). Input sequence: "GGUCAGCAAUAUUACGUUUG"
-2.38
